Experiment: activity coefficient (dimensionless); of the first substance listed, at infinite dilution; xn = mol fraction of the nth substance listed
Conditions: 322.85 K; Liquid; Chromatography; x1 = 0
reported-property: activity coefficient
Respond using a number only.

input: Give the value of activity coefficient reported for the following: CCCCCCCCCC [decane] + CCCCCCCC[N+](C)(C)C.O=S(=O)([N-]S(=O)(=O)C(F)(F)F)C(F)(F)F
output: 19.3

input: Give the value of activity coefficient reported for the following: c1ccccc1 [benzene] + CCCC[N+](C)(CCCC)CCCC.O=S(=O)([N-]S(=O)(=O)C(F)(F)F)C(F)(F)F
output: 0.9

input: Give the value of activity coefficient reported for the following: Cc1ccccc1C [1,2-dimethylbenzene] + CCCC[N+](C)(CCCC)CCCC.O=S(=O)([N-]S(=O)(=O)C(F)(F)F)C(F)(F)F
output: 1.38

input: Give the value of activity coefficient reported for the following: CCCCCC [hexane] + CCCCCCCC[N+](C)(C)C.O=S(=O)([N-]S(=O)(=O)C(F)(F)F)C(F)(F)F
output: 6.21

input: Give the value of activity coefficient reported for the following: CC1CCCC1 [methylcyclopentane] + CCCC[N+](C)(CCCC)CCCC.O=S(=O)([N-]S(=O)(=O)C(F)(F)F)C(F)(F)F
output: 4.75

input: Give the value of activity coefficient reported for the following: C1CCCCC1 [cyclohexane] + CCCCCCCC[N+](C)(C)C.O=S(=O)([N-]S(=O)(=O)C(F)(F)F)C(F)(F)F
output: 4.08

input: Give the value of activity coefficient reported for the following: CCCCCCCCC [nonane] + CCCCCCCCCC[N+](C)(C)C.O=S(=O)([N-]S(=O)(=O)C(F)(F)F)C(F)(F)F
output: 8.87

input: Give the value of activity coefficient reported for the following: CCO [ethanol] + CCCC[N+](C)(CCCC)CCCC.O=S(=O)([N-]S(=O)(=O)C(F)(F)F)C(F)(F)F
output: 1.53

input: Give the value of activity coefficient reported for the following: C1COCCO1 [1,4-dioxane] + CCCCCCCC[N+](C)(C)C.O=S(=O)([N-]S(=O)(=O)C(F)(F)F)C(F)(F)F
output: 0.62

input: Give the value of activity coefficient reported for the following: CC(C)CC(C)(C)C [2,2,4-trimethylpentane] + CCCCCCCC[N+](C)(C)C.O=S(=O)([N-]S(=O)(=O)C(F)(F)F)C(F)(F)F
output: 8.1

input: Give the value of activity coefficient reported for the following: CCCCCCCCCC [decane] + CCCCCCCC[N+](CCCCCCCC)(CCCCCCCC)CCCCCCCC.O=S(=O)([N-]S(=O)(=O)C(F)(F)F)C(F)(F)F
output: 2.3

input: Give the value of activity coefficient reported for the following: CCCCCCCCCCC [undecane] + CCCC[N+](C)(CCCC)CCCC.O=S(=O)([N-]S(=O)(=O)C(F)(F)F)C(F)(F)F
output: 25.7

input: Give the value of activity coefficient reported for the following: Cc1ccc(C)cc1 [1,4-dimethylbenzene] + CCCC[N+](C)(CCCC)CCCC.O=S(=O)([N-]S(=O)(=O)C(F)(F)F)C(F)(F)F
output: 1.51

input: Give the value of activity coefficient reported for the following: CO [methanol] + CCCC[N+](C)(CCCC)CCCC.O=S(=O)([N-]S(=O)(=O)C(F)(F)F)C(F)(F)F
output: 0.96
